CONDITION: octanol/water
Reported Log k' w values for a set of compounds
OBSERVABLE: Log k' w

COMPOUND: COc1ccc(CO)cc1
OBSERVABLE: Log k' w
VALUE_REPORTED: 0.815

COMPOUND: CC12CCC(C(=O)C1=O)C2(C)C (stereo unspecified)
OBSERVABLE: Log k' w
VALUE_REPORTED: 1.42

COMPOUND: Cc1ccc(N)cc1
OBSERVABLE: Log k' w
VALUE_REPORTED: 1.405

COMPOUND: Nc1cccc2ccccc12
OBSERVABLE: Log k' w
VALUE_REPORTED: 2.203

COMPOUND: O=[N+]([O-])c1ccc(Cl)cc1
OBSERVABLE: Log k' w
VALUE_REPORTED: 2.165

COMPOUND: N#Cc1cccc(O)c1
OBSERVABLE: Log k' w
VALUE_REPORTED: 1.557

COMPOUND: COc1ccccc1
OBSERVABLE: Log k' w
VALUE_REPORTED: 2.006

COMPOUND: Oc1cccc(F)c1
OBSERVABLE: Log k' w
VALUE_REPORTED: 1.749

COMPOUND: N#Cc1ccccc1
OBSERVABLE: Log k' w
VALUE_REPORTED: 1.279

COMPOUND: Cc1ccc(C(C)C)c(O)c1
OBSERVABLE: Log k' w
VALUE_REPORTED: 3.092

COMPOUND: COc1ccc([N+](=O)[O-])cc1
OBSERVABLE: Log k' w
VALUE_REPORTED: 1.857

COMPOUND: CC(=O)c1ccccc1
OBSERVABLE: Log k' w
VALUE_REPORTED: 1.359

COMPOUND: c1ccc(/N=N/c2ccccc2)cc1
OBSERVABLE: Log k' w
VALUE_REPORTED: 3.961

COMPOUND: Cc1ccc(O)cc1
OBSERVABLE: Log k' w
VALUE_REPORTED: 1.759

COMPOUND: Oc1cccc(Cl)c1
OBSERVABLE: Log k' w
VALUE_REPORTED: 2.391

COMPOUND: Nc1ccc(Br)cc1
OBSERVABLE: Log k' w
VALUE_REPORTED: 2.043

----------
ASSAY_REMARKS: physchem
CONDITION: octanol/water

COMPOUND: Nc1cccc(F)c1
logP: 1.3
//
COMPOUND: Nc1ccc(Cl)cc1
logP: 1.83
//
COMPOUND: COc1ccc(CO)cc1
logP: 1.1
//
COMPOUND: O=[N+]([O-])c1ccc(Cl)cc1
logP: 2.3
//
COMPOUND: CC12CCC(C(=O)C1=O)C2(C)C (configuration not stated)
logP: 1.52
//
COMPOUND: c1ccc(/N=N/c2ccccc2)cc1
logP: 3.82
//
COMPOUND: N#Cc1cccc(O)c1
logP: 1.7
//
COMPOUND: CC(=O)Nc1ccc(Br)cc1
logP: 2.29
//
COMPOUND: N#Cc1cccc([N+](=O)[O-])c1
logP: 1.17
//
COMPOUND: CCc1cccc(O)c1
logP: 2.4
//
COMPOUND: c1ccc2[nH]ccc2c1
logP: 2.14
//
COMPOUND: COc1ccc(N)cc1
logP: 0.95

Where do these numbers come from? They come from ChEMBL document CHEMBL1123974.
